Answer each item with its documented combination Emax.
# Test system: C-4-I (Cervical Carcinoma)
# assay.info: combination Emax (second highest fraction inhibited in the dose matrix, 72 h); higher = more inhibition; extreme values may be limits of the assay

Worked examples, 2 compounds total:
compound	combination Emax
NC1(C(=O)N[C@@H](CCO)c2ccc(Cl)cc2)CCN(c2ncnc3[nH]ccc23)CC1 [Capivasertib] + CC(C)n1c(=O)n(C)c2cnc3cc(F)c(-c4ccc(OCCCN5CCCCC5)nc4)cc3c21 [AZD1390] (first compound max 10 µM, 7x7, partner max 0.3 µM)	0.237
Cc1c2c(nn1C)CSCc1cc(n(C)n1)CSc1cc(c3ccccc3c1)OCCCc1c(C(=O)O)n(C)c3c-2c(Cl)ccc13 [AZD5991] + Cn1cnc2c(F)c(Nc3ccc(Br)cc3Cl)c(C(=O)NOCCO)cc21 [Selumetinib] (first compound max 1 µM, 7x7, partner max 3 µM)	1

Provide combination Emax values for the following items, in order.
1. CC1(C)CCC(CN2CCN(c3ccc(C(=O)NS(=O)(=O)c4ccc(NCC5CCOCC5)c([N+](=O)[O-])c4)c(Oc4cnc5[nH]ccc5c4)c3)CC2)=C(c2ccc(Cl)cc2)C1 [Venetoclax] + C1CN(CCC1(C(=O)N[C@@H](CCO)C2=CC=C(C=C2)Cl)N)C3=NC=NC4=C3C=CN4 [Capivasertib] (first compound max 1 µM, 7x7, partner max 3 µM)
2. Cc1c2c(nn1C)CSCc1cc(n(C)n1)CSc1cc(c3ccccc3c1)OCCCc1c(C(=O)O)n(C)c3c-2c(Cl)ccc13 [AZD5991] + CC1(C)CCC(CN2CCN(c3ccc(C(=O)NS(=O)(=O)c4ccc(NCC5CCOCC5)c([N+](=O)[O-])c4)c(Oc4cnc5[nH]ccc5c4)c3)CC2)=C(c2ccc(Cl)cc2)C1 [Venetoclax] (first compound max 1 µM, 7x7, partner max 1 µM)
3. CN(C)CCCOc1ccc(-c2ccc3ncc4c(c3c2)n(C2CCOCC2)c(=O)n4C)cn1 [AZD0156] + C[C@@H]1COCCN1C2=NC(=NC(=C2)C3(CC3)[S@](=N)(=O)C)C4=C5C=CNC5=NC=C4 [AZD6738] (first compound max 1 µM, 7x7, partner max 10 µM)
4. C[C@@H](c1ccc2nccn2c1)n1nnc2ncc(-c3cnn(C)c3)nc21 [Savolitinib] + Cc1c2c(nn1C)CSCc1cc(n(C)n1)CSc1cc(c3ccccc3c1)OCCCc1c(C(=O)O)n(C)c3c-2c(Cl)ccc13 [AZD5991] (first compound max 1 µM, 7x7, partner max 1 µM)
5. COc1nnc2ccc(N3CCC(c4ccc(OCCN5CCN(C)C(=O)[C@H]5C)cc4)CC3)nn12 [AZD5153] + CCN(CCO)CCCOc1ccc2c(Nc3cc(CC(=O)Nc4cccc(F)c4)[nH]n3)ncnc2c1 [AZD2811] (first compound max 1 µM, 7x7, partner max 1 µM)

RESULT:
1. 0.235
2. 0.976
3. 0.872
4. 0.273
5. 0.565

* * *

# Tested on: HSC-4 (Oral Cavity Carcinoma);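 note: after 72 h of two-drug dosing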
# assay.info: Bliss excess, mean over the matrix (fraction); higher = more synergy
Cut-off -0.03 on Bliss excess, inclusive. At or above means TRUE; below means FALSE.

The examples below pair each entry with its known result.
molecule	label.value
NC1(C(=O)N[C@@H](CCO)c2ccc(Cl)cc2)CCN(c2ncnc3[nH]ccc23)CC1 [Capivasertib] + COc1nnc2ccc(N3CCC(c4ccc(OCCN5CCN(C)C(=O)[C@H]5C)cc4)CC3)nn12 [AZD5153] (first compound max 10 µM, 7x7, partner max 1 µM)	TRUE
Cc1nc(Nc2ncc(C(=O)Nc3c(C)cccc3Cl)s2)cc(N2CCN(CCO)CC2)n1 [Dasatinib] + CC(=O)Nc1cccc(-n2c(=O)n(C3CC3)c(=O)c3c(Nc4ccc(I)cc4F)n(C)c(=O)c(C)c32)c1 [Trametinib] (first compound max 2 µM, 7x7, partner max 1 µM)	FALSE

QUERY: Is reported Bliss excess greater than or equal to -0.03 here: COc1nnc2ccc(N3CCC(c4ccc(OCCN5CCN(C)C(=O)[C@H]5C)cc4)CC3)nn12 [AZD5153] + C[C@@H]1COCCN1C2=NC(=NC(=C2)C3(CC3)[S@](=N)(=O)C)C4=C5C=CNC5=NC=C4 [AZD6738] (first compound max 1 µM, 7x7, partner max 10 µM)
RESULT: TRUE

QUERY: Is reported Bliss excess greater than or equal to -0.03 here: COc1nnc2ccc(N3CCC(c4ccc(OCCN5CCN(C)C(=O)[C@H]5C)cc4)CC3)nn12 [AZD5153] + CC1(C)CCC(CN2CCN(c3ccc(C(=O)NS(=O)(=O)c4ccc(NCC5CCOCC5)c([N+](=O)[O-])c4)c(Oc4cnc5[nH]ccc5c4)c3)CC2)=C(c2ccc(Cl)cc2)C1 [Venetoclax] (first compound max 1 µM, 7x7, partner max 1 µM)
RESULT: FALSE

QUERY: Is reported Bliss excess greater than or equal to -0.03 here: CCc1c2c(nc3ccc(O)cc13)-c1cc3c(c(=O)n1C2)COC(=O)[C@]3(O)CC [SN-38] + CN(C)CCCOc1ccc(-c2ccc3ncc4c(c3c2)n(C2CCOCC2)c(=O)n4C)cn1 [AZD0156] (first compound max 0.3 µM, 7x7, partner max 1 µM)
RESULT: FALSE
